# Assay Target: GST-TopBP1 BRCT5 (Homo sapiens, UniProt Q92547)
# Sequence (Q92547 641-746): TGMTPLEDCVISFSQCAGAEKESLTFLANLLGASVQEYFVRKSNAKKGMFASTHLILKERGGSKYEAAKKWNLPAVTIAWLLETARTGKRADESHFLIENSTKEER
Square brackets hold non-standard residues; d marks the D form. Peptide text beside a SMILES is read from it. * marks the point of attachment. FITC = O=C1OC2(c3ccc(O)cc3Oc3cc(O)ccc32)c2ccc(NC(=S)*)cc21; pT = C[C@@H](OP(=O)(O)O)[C@H](N)C(=O)O; pS = N[C@@H](COP(=O)(O)O)C(=O)O
Measured Parameter: pKd
Please express pKd as -log10 of the molar concentration.

See these solved cases before continuing.
Molecule	pKd
CC[C@H](C)[C@H](NC(=O)[C@H](Cc1ccccc1)NC(=O)CNC(=S)Nc1ccc2c(c1)C(=O)OC21c2ccc(O)cc2Oc2cc(O)ccc21)C(=O)N[C@@H](CC(=O)O)C(=O)N[C@@H](COP(=O)(O)O)C(=O)N[C@@H](CC(=O)O)C(=O)N[C@H](C(=O)N[C@@H](CC(=O)O)C(=O)N[C@@H](CC(=O)O)C(=O)N[C@@H](CCC(=O)O)C(=O)N[C@@H](CCC(=O)O)C(=O)N[C@@H](CCC(=O)O)C(N)=O)[C@@H](C)OP(=O)(O)O [FITC-GFIDpSDpTDDEEE-NH2] ({FITC}-GFID[pS]D[pT]DDEEE-NH2)	4.62
CC[C@H](C)[C@H](NC(=O)[C@H](Cc1ccccc1)NC(=O)CNC(=S)Nc1ccc2c(c1)C(=O)OC21c2ccc(O)cc2Oc2cc(O)ccc21)C(=O)N[C@@H](CC(=O)O)C(=O)N[C@@H](CO)C(=O)N[C@@H](CC(=O)O)C(=O)N[C@H](C(=O)N[C@@H](CC(=O)O)C(=O)N[C@H](C(=O)N[C@@H](CCC(=O)O)C(=O)N[C@@H](CCC(=O)O)C(=O)N[C@@H](CCC(=O)O)C(N)=O)C(C)C)[C@@H](C)OP(=O)(O)O [FITC-GFIDSDpTDVEEE-NH2] ({FITC}-GFIDSD[pT]DVEEE-NH2)	4.01
CC[C@H](C)[C@H](NC(=O)[C@H](Cc1ccccc1)NC(=O)CNC(=S)Nc1ccc2c(c1)C(=O)OC21c2ccc(O)cc2Oc2cc(O)ccc21)C(=O)N[C@@H](CC(=O)O)C(=O)N[C@@H](CO)C(=O)N[C@@H](CC(=O)O)C(=O)N[C@H](C(=O)N[C@@H](CC(=O)O)C(=O)N[C@H](C(=O)N[C@@H](CCC(=O)O)C(=O)N[C@@H](CCC(=O)O)C(=O)N[C@@H](CCC(=O)O)C(N)=O)C(C)C)[C@@H](C)O [FITC-GFIDSDTDVEEE-NH2] ({FITC}-GFIDSDTDVEEE-NH2)	3.51
CC[C@H](C)[C@H](NC(=O)[C@H](Cc1ccccc1)NC(=O)CNC(=S)Nc1ccc2c(c1)C(=O)OC21c2ccc(O)cc2Oc2cc(O)ccc21)C(=O)N[C@@H](CC(=O)O)C(=O)N[C@@H](COP(=O)(O)O)C(=O)N[C@@H](CC(=O)O)C(=O)N[C@H](C(=O)N[C@@H](CC(=O)O)C(=O)N[C@H](C(=O)N[C@@H](CCC(=O)O)C(=O)N[C@@H](CCC(=O)O)C(=O)N[C@@H](CCC(=O)O)C(N)=O)C(C)C)[C@@H](C)OP(=O)(O)O [FITC-GFIDpSDpTDVEEE-NH2] ({FITC}-GFID[pS]D[pT]DVEEE-NH2)	4.55

Now look at this entry.
Answer briefly: pKd recorded on GST-TopBP1 BRCT5 (Homo sapiens, UniProt Q92547) for CC[C@H](C)[C@H](NC(=O)[C@H](Cc1ccccc1)NC(=O)CNC(=S)Nc1ccc2c(c1)C(=O)OC21c2ccc(O)cc2Oc2cc(O)ccc21)C(=O)N[C@@H](CC(=O)O)C(=O)N[C@@H](COP(=O)(O)O)C(=O)N[C@@H](CC(=O)O)C(=O)N[C@H](C(=O)N[C@@H](CC(=O)O)C(=O)N[C@H](C(=O)N[C@@H](CCC(=O)O)C(=O)N[C@@H](CCC(=O)O)C(=O)N[C@@H](CCC(=O)O)C(N)=O)C(C)C)[C@@H](C)O [FITC-GFIDpSDTDVEEE-NH2] ({FITC}-GFID[pS]DTDVEEE-NH2) 3.98
